Biological target: human PDGFRβ (Homo sapiens, UniProt P09619)
Construct: expressed in transfected cells
Sequence (P09619 33-1106): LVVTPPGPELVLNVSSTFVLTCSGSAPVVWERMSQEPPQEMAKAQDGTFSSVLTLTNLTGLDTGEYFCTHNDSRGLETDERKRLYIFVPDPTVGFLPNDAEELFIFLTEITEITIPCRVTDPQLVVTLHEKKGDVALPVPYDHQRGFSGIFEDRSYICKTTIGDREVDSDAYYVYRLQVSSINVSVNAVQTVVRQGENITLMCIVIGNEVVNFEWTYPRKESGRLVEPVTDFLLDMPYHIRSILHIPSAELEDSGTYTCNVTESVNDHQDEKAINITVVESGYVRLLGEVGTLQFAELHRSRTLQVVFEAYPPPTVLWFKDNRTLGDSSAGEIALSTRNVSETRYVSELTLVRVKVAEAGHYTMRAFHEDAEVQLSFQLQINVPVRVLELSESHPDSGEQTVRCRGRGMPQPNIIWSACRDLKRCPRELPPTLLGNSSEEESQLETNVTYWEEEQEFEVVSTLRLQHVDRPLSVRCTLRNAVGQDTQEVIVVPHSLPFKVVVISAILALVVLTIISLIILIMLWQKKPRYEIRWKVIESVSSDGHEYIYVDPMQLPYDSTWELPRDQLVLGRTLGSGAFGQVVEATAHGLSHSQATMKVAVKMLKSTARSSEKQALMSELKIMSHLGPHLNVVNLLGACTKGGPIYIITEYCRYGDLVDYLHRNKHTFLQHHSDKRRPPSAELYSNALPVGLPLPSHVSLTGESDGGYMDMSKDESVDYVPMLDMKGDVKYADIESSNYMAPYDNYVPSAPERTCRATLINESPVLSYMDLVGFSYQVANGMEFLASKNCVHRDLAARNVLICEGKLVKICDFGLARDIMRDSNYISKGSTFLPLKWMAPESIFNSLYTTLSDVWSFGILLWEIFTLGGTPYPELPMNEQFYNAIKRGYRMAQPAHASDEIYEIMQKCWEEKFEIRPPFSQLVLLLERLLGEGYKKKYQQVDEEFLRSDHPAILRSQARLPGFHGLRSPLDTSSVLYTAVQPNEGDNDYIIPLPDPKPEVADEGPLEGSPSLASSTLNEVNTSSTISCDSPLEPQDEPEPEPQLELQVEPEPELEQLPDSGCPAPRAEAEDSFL
Test: PDGF dependent cell proliferation (MTS)
Type: cell-based
Conditions: read-out: Gl50 nM (PDGF ligand-dependent cell proliferation); PDGFRβ NIH-3T3 cells, PDGF BB (50ng/ml), 72 hours, serum-free medium
Method: NIH-3T3 mouse fibroblasts cell line engineered to stably express human PDGFRβ was constructed and used to evaluate PDGF dependent cell proliferation. […] The effects on proliferation were determined by MTS method (Promega) according to the instruction. Incubation was performed for 2 hours at 37°C in CO2 incubator, and absorbance at 490nm was measured using an ELISA plate reader.
Exercise: state measured pIC50 for each of the molecules provided.
Answers are plain numbers, as −log10 of the molar value.

molecule: COc1cc2ncnc(Oc3ccc4c(C(=O)NCc5ccc(C(=O)Nc6ccccc6N)cn5)cccc4c3)c2cc1OC [Compound 25]
pIC50: 7.16

Let us examine a further case.
Query COc1cc2nccc(Oc3ccc4c(C(=O)NCc5ccc(C(=O)Nc6ccccc6N)cn5)cccc4c3)c2cc1OC [Compound 38] yields pIC50 of 7.13
